All values here come from PubChem BioAssay.

assay: MM1S myeloma cell viability, profiling panel, resazurin fluorescence, basal, 24 h, PK04 Diversity Set (AID 1174); conditions: higher = more signal, called active from +8 up or from −8 down;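 further: MM1S multiple myeloma cell line; test concentration not given here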
Active and inactive are the calls of the source.
measure: z-score

CCCCCCc1nc(-c2ccc(OC)nc2)cc2c1[Si](C(C)C)(C(C)C)OC2 = 0.426 (inactive)
CC(=O)NCCCC[C@@H]1NC(=O)[C@H]2C[C@@H](C(=O)NCCCCCC[N+](C)(C)C)[C@@H](c3ccc(O)cc3)N2C1=O = 0.319 (inactive)
COC(=O)[C@@]1(Cc2ccc(OC)cc2)[C@@H]2[C@@H](CC(=O)[C@H]2CC(=O)C(=O)N2CCCC2)CN1C(=O)c1ccccc1 = -0.526 (inactive)
COCCCN1C(=O)[C@@]2(Cc3ccccc31)c1ccccc1C(=O)N(Cc1ccccc1OC)[C@H]2c1ccc(CO)cc1 = -0.309 (inactive)
CC(C)C(=C=CC[C@@H](O)c1ccc(OCCO)cc1)CCO = 1.21 (inactive)

Prompt: Consider the compound shown here: N#Cc1ccc(C(O)C2C=CC3C(=O)N(c4ccccc4)C(=O)C3N2Nc2ccc([N+](=O)[O-])cc2)cc1 (stereo not given) What is its recorded z-score?
Completion: -0.291 (inactive)

Prompt: Consider the compound shown here: CC(C)C[C@@H]1NC(=O)[C@@]23C(=O)N[C@@H](Cc4ccccc4)C2[C@H](C)[C@@]2(C)O[C@H]2C3/C=C/C/C=C\CNC(=O)[C@@H](CC(C)C)NC1=O (stereo not given in full) What is its recorded z-score?
Completion: -0.102 (inactive)

Prompt: Consider the compound shown here: `CCOC(=O)C[C@H]1[C@H](OC(=O)c2ccc(-c3ccccc3)cc2)[C@@H](NC(=O)c2ccc3ccccc3c2)c2cc(OCCCO)ccc2N1C(=O)c1ccccc1` What is its recorded z-score?
Completion: -0.483 (inactive)

Prompt: Consider the compound shown here: `COc1cccc(OC)c1C(=O)O[C@H]1[C@@H]2OC(=O)[C@H](Cc3cccc(Br)c3)C/C=C/C[C@@H](Cc3cccc(Br)c3)C(=O)O[C@H]2[C@@H](OC)O[C@@H]1CO` What is its recorded z-score?
Completion: -1.11 (inactive)

Prompt: Consider the compound shown here: `[N-]=[N+]=NCc1ccccc1C[C@]1(C(=O)N2CCCCC2)N=C(c2ccc(OCCCO)cc2)O[C@H]1c1ccccc1` What is its recorded z-score?
Completion: -2.13 (inactive)

Prompt: Consider the compound shown here: `CC(C)C[C@@H]1NC(=O)[C@@H]2C[C@H](C(=O)NCCCC[N+](C)(C)C)[C@H](c3ccc(O)cc3)N2C1=O` What is its recorded z-score?
Completion: -0.524 (inactive)

Prompt: Consider the compound shown here: `CCOC(=O)C[C@H]1[C@H](OC(=O)c2ccc(C(=O)c3ccccc3)cc2)[C@@H](NC(=O)c2ccc3ccccc3c2)c2cc(OCCCO)ccc2N1C(=O)c1ccc2ccccc2n1` What is its recorded z-score?
Completion: 0.64 (inactive)

Prompt: Consider the compound shown here: `C=CC[C@]1(C(=O)NCCCOC)N=C(c2ccc(OCCCO)cc2)O[C@H]1c1ccccc1` What is its recorded z-score?
Completion: 0.619 (inactive)

Prompt: Consider the compound shown here: `Cc1ccc(S[C@]2(C(=O)NC3CC3)CC(=O)N(Cc3cc(C(F)(F)F)cc(C(F)(F)F)c3)[C@@H]2c2ccc(CO)cc2I)cc1` What is its recorded z-score?
Completion: -2.78 (inactive)

Prompt: Consider the compound shown here: `CCCC[C@@H]1C[C@H]1[C@@H](NC(=O)c1ccc(C(F)(F)F)cc1)c1ccc(C(=O)OC)cc1` What is its recorded z-score?
Completion: 0.444 (inactive)
